targetUnderTest: Cell-associated proTGFβ1 (hGARP-proTGFβ1 and hLRRC33-proTGFβ1 complexes)
procedureText: Octet (BLI); IgG1 from yeast; mean of hGARP and hLRRC33
Property: Cell AVRG (average KD); scope: individual binders
Answer format: numeric, nM implied, no suffix.

Ab13 (antibody, IgG1, V domains shown) VH: EVQLLESGGGLVQPGGSLRLSCAASGFTFADYAMTWVRQAPGKGLEWVSAISSFASAIYYADSVKGRFTISRDNSKNTLYLQMNSLRAEDTAVYYCARVSSGHWDFDYWGQGTLVTVSS VL: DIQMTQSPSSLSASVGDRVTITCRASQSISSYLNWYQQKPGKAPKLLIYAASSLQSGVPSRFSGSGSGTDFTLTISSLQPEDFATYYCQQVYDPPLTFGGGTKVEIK ... 5.7
Ab16 (antibody, IgG1, V domains shown) VH: EVQLLESGGGLVQPGGSLRLSCAASGFTFSNYAMSWVRQAPGKGLEWVSAISGSGFTTYYADSVKGRFTISRDNSKNTLYLQMNSLRAEDTAVYYCARVSSGHWDFDYWGQGTLVTVSS VL: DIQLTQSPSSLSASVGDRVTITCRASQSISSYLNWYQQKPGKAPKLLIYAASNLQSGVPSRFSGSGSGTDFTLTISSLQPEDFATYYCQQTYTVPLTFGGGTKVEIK ... 2.4

Please turn your attention to the following entry.
In: Quick one: give measured Cell AVRG (average KD) for Ab20 (antibody, V domains shown) VH: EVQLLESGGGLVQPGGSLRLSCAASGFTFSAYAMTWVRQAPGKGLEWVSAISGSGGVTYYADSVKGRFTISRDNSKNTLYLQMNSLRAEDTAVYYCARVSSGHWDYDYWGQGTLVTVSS VL: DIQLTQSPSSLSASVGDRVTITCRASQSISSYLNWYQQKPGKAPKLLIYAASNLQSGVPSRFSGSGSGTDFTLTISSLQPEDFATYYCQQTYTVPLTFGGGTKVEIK
Out: 0.715
